# IC50 per entry for Cytochrome P450 2C19 (Homo sapiens)
Enter the number, and then the unit.

- Compound: "Fc1ccc(C2(Cn3cncn3)COC(c3cc4ccc(Cl)cc4s3)=N2)cc1 (configuration not stated)"
  Assayed target: "Cytochrome P450 2C19 (Homo sapiens)"
  IC50: "1040 nM"

In the following, a different compound is considered.
Query: So what's the measured IC50 for this one? Clc1ccc(C2(Cn3cncn3)COC(c3cc4ccc(Cl)cc4s3)=N2)cc1 (configuration not stated)
Response: 168 nM

---

assay: Half life in Sprague-Dawley rat at 2 mg/kg, iv measured upto 24 hrs by LC/MS/MS analysis; type: ADME, organism-based; conditions: in vivo
Assay metric: half-life (h)
Value expressed in h; do not type the unit.

Query: So what's the measured half-life for this one? Fc1ccc(C2(Cn3cncn3)COC(c3cc4ccc(Cl)cc4s3)=N2)cc1 (stereo unspecified)
Response: 3.34

---

test: AUC(0 to last) in Sprague-Dawley rat at 2 mg/kg, iv measured upto 24 hrs by LC/MS/MS analysis; format: ADME, organism-based; design: route intravenous, dose 2 mg/kg, time <=24; settings: in vivo
Assay metric: AUC(0-t) at 24 h (µg·h/mL)
Value expressed in µg·h/mL; do not type the unit.

Query: So what's the measured AUC(0-t) at 24 h for this one? Fc1ccc(C2(Cn3cncn3)COC(c3cc4ccc(Cl)cc4s3)=N2)cc1 (stereo unspecified)
Response: 0.483

---

target: Cytochrome P450 2D6 (Homo sapiens)
Sequence (P10635 whole entry): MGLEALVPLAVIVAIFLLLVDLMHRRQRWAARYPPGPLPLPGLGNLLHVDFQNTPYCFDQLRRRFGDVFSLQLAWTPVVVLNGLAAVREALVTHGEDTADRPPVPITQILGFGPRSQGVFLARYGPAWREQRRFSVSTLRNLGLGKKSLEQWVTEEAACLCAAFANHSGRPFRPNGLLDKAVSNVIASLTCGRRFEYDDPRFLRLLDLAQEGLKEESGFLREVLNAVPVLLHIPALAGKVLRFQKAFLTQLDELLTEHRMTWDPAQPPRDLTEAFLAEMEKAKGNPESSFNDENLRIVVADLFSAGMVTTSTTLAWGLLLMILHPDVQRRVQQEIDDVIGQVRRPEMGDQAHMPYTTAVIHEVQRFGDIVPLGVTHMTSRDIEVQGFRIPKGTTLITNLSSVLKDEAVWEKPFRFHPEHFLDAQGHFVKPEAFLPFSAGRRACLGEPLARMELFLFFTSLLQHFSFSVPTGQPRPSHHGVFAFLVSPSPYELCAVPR
Assay metric: IC50

- Compound: "Fc1ccc(C2(Cn3cncn3)COC(c3cc4ccc(Cl)cc4s3)=N2)cc1 (configuration not stated)"
  Result: "31.3 µM"

In the following, a different compound is considered.
Query: So what's the measured IC50 for this one? Clc1ccc(C2(Cn3cncn3)COC(c3cc4ccc(Cl)cc4s3)=N2)cc1 (configuration not stated)
Response: 47.6 µM

---

test: Metabolic stability in human liver microsomes assessed as microsomal intrinsic clearance at 100 uM pre-incubated for 10 mins followed by NADPH-regenerating system and measured upto 60 mins by LC-MS/MS analysis; format: ADME, Microsome; conditions: time <=70 min, read-out: CLH
Assay metric: microsomal CLint at 100 µM (µL/min/mg)
Value expressed in µL/min/mg; do not type the unit.

- Compound: "Fc1ccc(C2(Cn3cncn3)COC(c3cc4ccc(Cl)cc4s3)=N2)cc1 (configuration not stated)"
  Assay metric: "microsomal CLint at 100 µM"
  Recorded number: 17.2

In the following, a different compound is considered.
Query: So what's the measured microsomal CLint at 100 µM for this one? Clc1ccc(C2(Cn3cncn3)COC(c3cc4ccc(Cl)cc4s3)=N2)cc1 (configuration not stated)
Response: 20

---

experiment: Stability in human plasma assessed as half life incubated for 60 mins by LC-MS/MS analysis; assay type: ADME, cell-free
Here, each record is paired with measured half-life data.

Look over these answered cases.
- Molecule: "Fc1ccc(C2(Cn3cncn3)COC(c3cc4ccc(Cl)cc4s3)=N2)cc1 (stereo not drawn)"
  Assay metric: "half-life"
  Result: "> 4.82 h"
- Molecule: "Clc1ccc(C2(Cn3cncn3)COC(c3cc4ccc(Cl)cc4s3)=N2)cc1 (stereo not drawn)"
  Assay metric: "half-life"
  Result: "> 4.82 h"

In the following, a different molecule is considered.
Query: So what's the measured half-life for this one? `OC(Cn1cncn1)(Cn1cncn1)c1ccc(F)cc1F`
Response: > 4.82 h

---

Here, each record is paired with measured remaining at 1 h data.
assay: Stability in human plasma assessed as compound remaining incubated for 60 mins by LC-MS/MS analysis; format: ADME, cell-free; settings: read-out: Stability
Value expressed in %; do not type the unit.

Look over these answered cases.
- Molecule: "Fc1ccc(C2(Cn3cncn3)COC(c3cc4ccc(Cl)cc4s3)=N2)cc1 (stereo not drawn)"
  remaining at 1 h, %: 92.6
- Molecule: "OC(Cn1cncn1)(Cn1cncn1)c1ccc(F)cc1F"
  remaining at 1 h, %: 86.7

In the following, a different molecule is considered.
Query: So what's the measured remaining at 1 h for this one? Clc1ccc(C2(Cn3cncn3)COC(c3cc4ccc(Cl)cc4s3)=N2)cc1 (stereo not drawn)
Response: 92.7
